# System: SGC-7901
# assay_details: Antiproliferative activity against human SGC7901 cells incubated for 48 hrs and measured after 4 hrs by MTT assay
# Assay type: functional, cell-based
For each record, write down the corresponding IC50.
Report as a plain number; the unit µM is understood.

Reported IC50 for CC(C)(O)CCC[C@@](C)(O)[C@H]1CC[C@]2(C)[C@@H]1[C@H](O)C[C@@H]1[C@@]3(C)C/C(=C\c4ccc([N+](=O)[O-])cc4)[C@H](O)C(C)(C)[C@@H]3CC[C@]12C : what is it?
47.2

Thanks! And CC(C)(O)CCC[C@@](C)(O)[C@H]1CC[C@]2(C)[C@@H]1[C@H](O)C[C@@H]1[C@@]3(C)CC[C@H](OC(=O)C4CCCN(C(=O)OC(C)(C)C)C4)C(C)(C)[C@@H]3CC[C@]12C (some centres undefined) ?
22.3

Next: CC(C)(O)CCC[C@@](C)(O)[C@H]1CC[C@]2(C)[C@@H]1[C@H](O)C[C@@H]1[C@@]3(C)C/C(=C\c4ccc(F)cc4F)[C@H](O)C(C)(C)[C@@H]3CC[C@]12C
30.4

Now consider CC(C)(O)CCC[C@@](C)(O)[C@H]1CC[C@]2(C)[C@@H]1[C@H](O)C[C@@H]1[C@@]3(C)C/C(=C\c4ccc(C(F)(F)F)cc4)C(=O)C(C)(C)[C@@H]3CC[C@]12C .
29.1

Proceed to CC(C)(O)CCC[C@@](C)(O)[C@H]1CC[C@]2(C)[C@@H]1[C@H](O)C[C@@H]1[C@@]3(C)CC[C@H](NC(=O)C4CCNCC4)C(C)(C)[C@@H]3CC[C@]12C
32.4

Now give it for CC(C)(O)CCC[C@@](C)(O)[C@H]1CC[C@]2(C)[C@@H]1[C@H](O)C[C@@H]1[C@@]3(C)CC[C@H](OC(=O)C4CCN(C(=O)OC(C)(C)C)CC4)C(C)(C)[C@@H]3CC[C@]12C too.
18.2

###

# Tested on: SGC-7901
# assay_details: Antiproliferative activity against human SGC7901 cells incubated for 48 hrs and measured after 4 hrs by MTT assay
# Assay type: functional, cell-based
Record form. Attribute: IC50. Fill in for each entry.
Write it as a number; the unit µM goes unstated.

For CC(C)(O)CCC[C@@](C)(O)[C@H]1CC[C@]2(C)[C@@H]1[C@H](O)C[C@@H]1[C@@]3(C)CC[C@H](NC(=O)C4CCCN(C(=O)OC(C)(C)C)C4)C(C)(C)[C@@H]3CC[C@]12C (some centres not stated) , what is its reported IC50?
18.1

Can you check CC(C)(O)CCC[C@@](C)(O)[C@H]1CC[C@]2(C)[C@@H]1[C@H](O)C[C@@H]1[C@@]3(C)C/C(=C\c4cccc(F)c4)C(=O)C(C)(C)[C@@H]3CC[C@]12C next?
31.8

// repeat for CC(C)(O)CCC[C@@](C)(O)[C@H]1CC[C@]2(C)[C@@H]1[C@H](O)C[C@@H]1[C@@]3(C)C/C(=C\c4cccc(Br)c4)C(=O)C(C)(C)[C@@H]3CC[C@]12C and report
20.6

Lookup CC(C)(O)CCC[C@@](C)(O)[C@H]1CC[C@]2(C)[C@@H]1[C@H](O)C[C@@H]1[C@@]3(C)C/C(=C\c4ccc([N+](=O)[O-])cc4)C(=O)C(C)(C)[C@@H]3CC[C@]12C
28.2

What about this molecule? CC(C)(O)CCC[C@@](C)(O)[C@H]1CC[C@]2(C)[C@@H]1[C@H](O)C[C@@H]1[C@@]3(C)CC[C@H](O)C(C)(C)[C@@H]3CC[C@]12C
34

Can you handle CC(C)(O)CCC[C@@](C)(O)[C@H]1CC[C@]2(C)[C@@H]1[C@H](O)C[C@@H]1[C@@]3(C)C/C(=C\c4ccc(F)cc4F)C(=O)C(C)(C)[C@@H]3CC[C@]12C next?
11.2
